Target: cyno SIRPα stably expressed on CHOK1 cells (cyno)
Test: FACS, CHOK1-cyno SIRPα cells
Please respond with reported MFI at 10 nM for every item in the list.
# number only, unit MFI dropped from output

[ask] Any idea what MFI at 10 nM was measured for 005 (antibody, V domains shown) VH: EVKLVESGGGLVQPGGSLSLSCAASGFTFTDYYMSWVRQPPGKALEWLGFIKNEANGYTTESSASVKGRFTISRDNSQSILYLQMNALRAEDSATYYCARYDYYGSNYNWYFDAWGTGTTVTVSS VL: DIVMTQSQKFMSPSVGDRVSITCKASQNVRTAVAWYQQKPGQSPKVLIHLASKRHTGVPDRFTGSGSGTDFTLTISNVQSEDLADYFCLQHWIHPLTFGAGTKLELK ?
[reply] 5970

[ask] Again, but for 071 (antibody, V domains shown) VH: QIQLVQSGPELKKPGETVKISCKASGYTFTTYGMSWVKQAPGKGLKWMVWINTYSGVPTYADDFQGRFAFSLETSASTSYLQINNLRNEDTATYFCARDPHYYGTSPAWFAYWGQGTLVTVSA VL: DIVMTQSQKFMSTTIGDRVIITCKASQIVGIAVAWYQQKPGQSPKLLIYSASNRFTGVPDRFTGSGSGTDFTLTISNMQSEDLADYFCQQYSTYPFTFGSGTKLEIK
[reply] 8370

[ask] Next up: 059 (antibody, V domains shown) VH: QVQLQQSGPELVKPGASVKMSCKASGYTFSEYVLSWVKQRTGQGLEWIGEIYPGTITTYYNEKFKGKATLTADKSSNTAYIQLTSLTSEDSAVYFCGRFYDYDGGWFAYWGQGTLLTVSA VL: ENVLTQSPEKMAVSLGQKVTMTCSASSSVSSSDLHWYQQKSGASPKPLIHGTSNLASGVPARFSGSGSGTSYSLTISSVEAEDAATYYCQQWSGYPWTFGGGTNLEIK
[reply] 5840
